Here, each record is paired with measured PBM E-score data.
System Name: Cst6 (UniProt P40535)
Sequence (P40535 whole entry): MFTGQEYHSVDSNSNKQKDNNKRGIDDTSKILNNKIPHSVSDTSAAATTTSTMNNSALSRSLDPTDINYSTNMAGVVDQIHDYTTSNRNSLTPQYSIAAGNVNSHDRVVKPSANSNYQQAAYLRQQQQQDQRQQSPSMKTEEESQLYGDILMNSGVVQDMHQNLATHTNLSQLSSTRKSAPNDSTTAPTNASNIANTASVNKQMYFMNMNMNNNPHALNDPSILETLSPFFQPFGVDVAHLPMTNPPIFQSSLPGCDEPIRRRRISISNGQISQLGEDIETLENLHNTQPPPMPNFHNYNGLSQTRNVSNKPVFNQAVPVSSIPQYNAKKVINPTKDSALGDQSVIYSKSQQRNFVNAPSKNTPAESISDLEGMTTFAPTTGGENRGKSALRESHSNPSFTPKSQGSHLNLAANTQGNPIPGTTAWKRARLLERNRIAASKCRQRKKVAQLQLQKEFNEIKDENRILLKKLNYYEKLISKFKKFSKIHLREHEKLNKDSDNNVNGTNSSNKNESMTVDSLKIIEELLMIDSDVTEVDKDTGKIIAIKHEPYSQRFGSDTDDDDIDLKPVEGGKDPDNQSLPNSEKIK
Run Description: PBM E-score (8-mer binding enrichment) (E-score (-0.5 to 0.5)); higher = stronger / more preferred TF binding
Condition Notes: protein concentration: 200 nM; construct: GST-DNA-binding domain
Over roughly 33,000 sequences, “E-score (-0.5 to 0.5)” has its median near -0.016; the highest 2% begin near 0.31. Shown is part of a subset that was picked to be rich in the highest values.
I'd appreciate a reply containing only the number, no unit.

Known results for sequences:
ACGTAAGT
0.422
AGGTAAGG
-0.132
AATGATAT
0.322

Lab note: next sequence to report on.
// sample AAGTAAGT , its PBM E-score was 0.116
